Target: UniProtKB P33535
Sequence (P33535 whole entry): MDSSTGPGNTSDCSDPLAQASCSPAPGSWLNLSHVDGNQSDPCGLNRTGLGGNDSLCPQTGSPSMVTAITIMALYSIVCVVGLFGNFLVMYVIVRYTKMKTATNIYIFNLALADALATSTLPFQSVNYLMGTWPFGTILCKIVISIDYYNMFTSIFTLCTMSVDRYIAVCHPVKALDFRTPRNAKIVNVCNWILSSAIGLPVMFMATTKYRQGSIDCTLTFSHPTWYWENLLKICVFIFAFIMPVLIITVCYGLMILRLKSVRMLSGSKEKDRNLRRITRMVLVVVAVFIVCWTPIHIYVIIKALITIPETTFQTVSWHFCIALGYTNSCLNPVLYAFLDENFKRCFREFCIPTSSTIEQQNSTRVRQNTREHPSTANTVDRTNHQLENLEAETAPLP
Assay: Inhibition of Wistar rat brain membrane MOP
Decide using IC50 alone. Strictly below 800 pM: TRUE. Equal to or above 800 pM: FALSE.

INSERT INTO assay_data (smiles, group) VALUES
  ('Cc1cc(O)cc(C)c1C[C@H](N)C(=O)N[C@@H]1CCCCNC(=O)C[C@@H](C(N)=O)NC(=O)[C@H](c2ccccc2)NC(=O)[C@H](c2ccccc2)NC1=O', 'TRUE'),
  ('Cc1ccccc1[C@@H]1NC(=O)[C@H](NC(=O)[C@@H](N)Cc2c(C)cc(O)cc2C)CCCCNC(=O)C[C@@H](C(N)=O)NC(=O)[C@H](c2ccccc2)NC1=O', 'FALSE'),
  ('Cc1ccc([C@@H]2NC(=O)[C@H](NC(=O)[C@@H](N)Cc3c(C)cc(O)cc3C)CCCCNC(=O)C[C@@H](C(N)=O)NC(=O)[C@H](c3ccccc3)NC2=O)cc1', 'FALSE'),
  ('Cc1cccc([C@@H]2NC(=O)[C@H](c3ccccc3)NC(=O)[C@H](NC(=O)[C@@H](N)Cc3c(C)cc(O)cc3C)CCCCNC(=O)C[C@@H](C(N)=O)NC2=O)c1', 'TRUE'),
  ('Cc1ccccc1[C@@H]1NC(=O)[C@H](c2ccccc2)NC(=O)[C@H](NC(=O)[C@@H](N)Cc2c(C)cc(O)cc2C)CCCCNC(=O)C[C@@H](C(N)=O)NC1=O', 'TRUE'),
  ('Cc1ccc([C@@H]2NC(=O)[C@H](c3ccccc3)NC(=O)[C@H](NC(=O)[C@@H](N)Cc3c(C)cc(O)cc3C)CCCCNC(=O)C[C@@H](C(N)=O)NC2=O)cc1', 'TRUE');
